B1: Caulobacter ParB omega fusion; a variant is named by its letters at X, in order, B8GW30 (parent)
chain: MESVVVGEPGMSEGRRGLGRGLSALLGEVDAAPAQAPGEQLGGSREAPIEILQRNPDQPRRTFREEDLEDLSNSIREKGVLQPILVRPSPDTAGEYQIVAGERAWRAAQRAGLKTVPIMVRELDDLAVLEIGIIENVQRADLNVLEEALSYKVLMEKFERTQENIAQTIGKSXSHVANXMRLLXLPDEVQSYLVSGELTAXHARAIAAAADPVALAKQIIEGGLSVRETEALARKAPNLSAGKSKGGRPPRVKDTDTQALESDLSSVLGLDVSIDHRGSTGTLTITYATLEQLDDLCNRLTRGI

Variants of: B1
Assay: one-hybrid fitness for binding parS DNA (scaled: cognate 1, non-cognate 0); higher = stronger binding
Conditions: with parS DNA site
Whole data set: some 81,000 sequences, median “one-hybrid fitness for binding parS DNA” near -0.17, cut for the highest 2% near 0.51. The list comes from a sample in which the highest values are over-represented; it also holds close analogues and randomly drawn sequences.
METRIC: one-hybrid fitness for binding parS DNA
Respond using a number only.

> print(dat)
   mutant.code                                   metric  recorded.result
1         RWIA  one-hybrid fitness for binding parS DNA            0.295
2         RMPA  one-hybrid fitness for binding parS DNA            0.393
3         RTPA  one-hybrid fitness for binding parS DNA            0.363
4         RTIA  one-hybrid fitness for binding parS DNA            0.542
5         RLPA  one-hybrid fitness for binding parS DNA            0.376

## Task # get_value(readout='one-hybrid fitness for binding parS DNA', item= RLIA )
## Result 0.592

## Task # get_value(readout='one-hybrid fitness for binding parS DNA', item= RMIA )
## Result 0.537

## Task # get_value(readout='one-hybrid fitness for binding parS DNA', item= RSIA )
## Result 0.474
